attribute_measured: melting point

Worked examples follow.
{"molecule": "CCN(CC)C(=O)[C@H]1CCC2C3CCC4=CC(=O)/C(=C\\O)C[C@]4(C)C3CC[C@@]21C (stereo partly drawn)", "result": "153 to 159 °C"}
{"molecule": "C[C@]12CC[C@H]3[C@@H](CCC4=CC(=O)C(=CO)C[C@@]43C)[C@@H]1CC[C@@H]2C(=O)NC1CC1", "result": "125 to 130 °C"}

Exercise: GET /values?readout=melting point&item= CC(C)CNC(=O)[C@H]1CCC2C3CCC4=CC(=O)/C(=C\O)C[C@]4(C)C3CC[C@@]21C (stereo partly drawn)
Solution: 152 to 158 °C

Reference source for all entries: paper PMC6735293
